assayRemarks: Toxicity liver stage against HepG2, at 10uM
Type: cell-based
Set-up: test concentration 10 uM, cell line HepG2-A16-CD81EGFP
conditionInfo: human, HepG2-A16-CD81EGFP cells; read-out: INHIBITION
measurementType: cytotoxicity at 10 µM (%)
All answers are understood in %, so give the number only.

Need cytotoxicity at 10 µM, item "COCCC(=O)N1CCC2(CN(Cc3cccc(F)c3)C2)C1" -74

Need cytotoxicity at 10 µM, item CC(O)Cc1cn(CC2CCN(c3nccc4occc34)CC2)nn1 (stereo unspecified) -6.64

Need cytotoxicity at 10 µM, item CC[C@H](C)[C@@H](CO)NC(C)Cc1ccc(Cl)cc1 (stereo partly specified) -10.6

Need cytotoxicity at 10 µM, item Cc1ccc(-c2cc(CNC(=O)N3CCOC(C)C3)on2)cc1 (stereo unspecified) -6.09

Need cytotoxicity at 10 µM, item O=C(CN(CC(O)c1ccc(F)cc1)C1CC1)NC1CCOCC1 (stereo unspecified) 0.0428

Need cytotoxicity at 10 µM, item O=C(CN1CCCC(CO)C1)NCCOc1cccc(Cl)c1 (stereo unspecified) -12.2
